# assay-info: The compound was tested for inhibition of Bacillus subtilis chorismate mutase (BcCM); weak competitive inhibitor
reported-endpoint: Ki

[ask] Let me know recorded Ki for "C=C(O[C@@H]1C=CC=C[C@H]1O)C(=O)[O-].[Na+]" , thanks.
[reply] 500 µM

###

# assay-info: Rearrangement half-life at pH of 7.4 was determined
# Type: ADME
# test-parameters: pH 7.4
reported-endpoint: half-life

[ask] Let me know recorded half-life for "C=C(O[C@@H]1C=CC=C[C@H]1O)C(=O)[O-].[Na+]" , thanks.
[reply] 1.7 h

Origin of the recorded values: ChEMBL document CHEMBL1130333
